Each recorded value in this set is attributed to the supplement of paper PMC7125110.

B1: glmS ribozyme (parent)
chain: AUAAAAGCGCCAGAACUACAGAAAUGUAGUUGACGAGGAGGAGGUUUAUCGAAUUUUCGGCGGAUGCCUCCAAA

Variants of: B1
Experiment: self-cleavage kobs at 2500 uM GlcN6P; higher = faster cleavage; RNA array
Conditions: with glucosamine-6-phosphate
This sample holds only a part of the variants without activity.
quantity: self-cleavage kobs at 2500 uM GlcN6P (s⁻¹)
# value in s⁻¹; strip the unit string

Given item G29A U54A , the value recorded as its self-cleavage kobs at 2500 uM GlcN6P is 0.00422

Given item G29A C71U , the value recorded as its self-cleavage kobs at 2500 uM GlcN6P is 0.00526

Given item A14C C16A A42G , the value recorded as its self-cleavage kobs at 2500 uM GlcN6P is 5.08e-05

Given item G29C U56A C67G , the value recorded as its self-cleavage kobs at 2500 uM GlcN6P is 7.09e-05

Given item G29U C67A , the value recorded as its self-cleavage kobs at 2500 uM GlcN6P is 0.000437

Given item C50U U54G , the value recorded as its self-cleavage kobs at 2500 uM GlcN6P is 4e-05

Given item A6G A14C U54G , the value recorded as its self-cleavage kobs at 2500 uM GlcN6P is 3.32e-05

Given item A14U U46C , the value recorded as its self-cleavage kobs at 2500 uM GlcN6P is 0.000395

Given item A6U U56G U65A C67A , the value recorded as its self-cleavage kobs at 2500 uM GlcN6P is 0.000119

Given item A15C G32U , the value recorded as its self-cleavage kobs at 2500 uM GlcN6P is 0.000321

Given item G29U C71U , the value recorded as its self-cleavage kobs at 2500 uM GlcN6P is 0.00226

Given item U45A C50U , the value recorded as its self-cleavage kobs at 2500 uM GlcN6P is 3.25e-05

Given item A53G C70G , the value recorded as its self-cleavage kobs at 2500 uM GlcN6P is 0.000173

Given item C50G G60A A64G , the value recorded as its self-cleavage kobs at 2500 uM GlcN6P is 0.000134

Given item A12C A39U , the value recorded as its self-cleavage kobs at 2500 uM GlcN6P is 0.00569

Given item G13U A53G C68U , the value recorded as its self-cleavage kobs at 2500 uM GlcN6P is 0.000212

Given item G32A A53G , the value recorded as its self-cleavage kobs at 2500 uM GlcN6P is 0.00106

Given item A15G G41C , the value recorded as its self-cleavage kobs at 2500 uM GlcN6P is 0.00032

Given item A12U C50G , the value recorded as its self-cleavage kobs at 2500 uM GlcN6P is 6.46e-05

Given item G29C G37A , the value recorded as its self-cleavage kobs at 2500 uM GlcN6P is 7.11e-05

Given item A33U U69C , the value recorded as its self-cleavage kobs at 2500 uM GlcN6P is 5.12e-05

Given item C50G C61A C67U , the value recorded as its self-cleavage kobs at 2500 uM GlcN6P is 5.47e-05

Given item A14G U69G , the value recorded as its self-cleavage kobs at 2500 uM GlcN6P is 0.000103

Given item C16U U57G U65A C70A , the value recorded as its self-cleavage kobs at 2500 uM GlcN6P is 0.000271

Given item A15C U69G , the value recorded as its self-cleavage kobs at 2500 uM GlcN6P is 7.29e-05

Given item A15U G37A G66C , the value recorded as its self-cleavage kobs at 2500 uM GlcN6P is 7.17e-05

Given item U54A A64G C68G , the value recorded as its self-cleavage kobs at 2500 uM GlcN6P is 0.000109

Given item C16A C50G G62A A64U , the value recorded as its self-cleavage kobs at 2500 uM GlcN6P is 9.04e-05

Given item A14C U55A , the value recorded as its self-cleavage kobs at 2500 uM GlcN6P is 0.0031

Given item U45A C71A , the value recorded as its self-cleavage kobs at 2500 uM GlcN6P is 0.00202

Given item A36C U69G , the value recorded as its self-cleavage kobs at 2500 uM GlcN6P is 0.0001

Given item G13A U45C G66A , the value recorded as its self-cleavage kobs at 2500 uM GlcN6P is 9.89e-05

Given item A36G C70U , the value recorded as its self-cleavage kobs at 2500 uM GlcN6P is 3.3e-05

Given item U30G C71U , the value recorded as its self-cleavage kobs at 2500 uM GlcN6P is 0.00639

Given item U65G G66A , the value recorded as its self-cleavage kobs at 2500 uM GlcN6P is 0.0013

Given item A15U A39U , the value recorded as its self-cleavage kobs at 2500 uM GlcN6P is 0.00233

Given item G40U C71G , the value recorded as its self-cleavage kobs at 2500 uM GlcN6P is 0.00351

Given item A6G C11G U69G , the value recorded as its self-cleavage kobs at 2500 uM GlcN6P is 7.2e-05

Given item C11U U65A C71U , the value recorded as its self-cleavage kobs at 2500 uM GlcN6P is 8.15e-05

Given item G32C U56A U65G U69G , the value recorded as its self-cleavage kobs at 2500 uM GlcN6P is 6.06e-05

Given item C10A U56A C70U , the value recorded as its self-cleavage kobs at 2500 uM GlcN6P is 0.000147

Given item A15G C50G , the value recorded as its self-cleavage kobs at 2500 uM GlcN6P is 8.29e-05

Given item U31C A53C U55C , the value recorded as its self-cleavage kobs at 2500 uM GlcN6P is 0.000164

Given item C67A C68A , the value recorded as its self-cleavage kobs at 2500 uM GlcN6P is 2.46e-05

Given item U54A U57A , the value recorded as its self-cleavage kobs at 2500 uM GlcN6P is 0.000102

Given item U46G U69C , the value recorded as its self-cleavage kobs at 2500 uM GlcN6P is 0.00128

Given item G51U A53G U69G , the value recorded as its self-cleavage kobs at 2500 uM GlcN6P is 4.29e-05

Given item A15C G66C , the value recorded as its self-cleavage kobs at 2500 uM GlcN6P is 0.000277

Given item G37A U45C , the value recorded as its self-cleavage kobs at 2500 uM GlcN6P is 6.95e-05

Given item A15C U55G C70A , the value recorded as its self-cleavage kobs at 2500 uM GlcN6P is 4.46e-05
